Assay Name: NCI Yeast Anticancer Drug Screen. Data for the rad52 strain (AID 147);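 note: 0% = growth of vehicle-treated control cultures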
Assay Setup: S. cerevisiae rad52 mutant growth inhibition; at 33.0 µM
Procedure: Growth inhibition of yeast strains with defined genetic alterations is measured as a screen for potential anti-cancer activity. Selected strains with alterations in DNA damage repair or cell cycle control were exposed to compounds and growth inhibition was measured relative to vehicle treated controls. The strain used in this assay is rad52
About 79,000 compounds went through this panel and 15% of them were active in at least one assay; those are over-represented in the sample as a whole. Active and inactive are the calls of the source. Cut-off read from the data, not from the text of the source: active = growth inhibition above about 70%; inactive = the rest.
Outcome codes: true (active), false (inactive)

1) CCN(CC)CC[n+]1ccc2c(C)c3[nH]c4ccc(O)cc4c3c(C)c2c1: true
2) COc1ccc(Br)c(C(=O)Sc2nnnn2-c2cccc(Cl)c2)c1: false
3) Cc1ccc(-c2ccc(Nc3c4ccccc4nc4ccccc34)cc2)cn1: true
4) COc1ccc2sc3cccc(NCCN(C)C)c3c(=O)c2c1: false
5) COC(=O)C1=C(C)NC(C)=C(C(=O)OC)C1c1cccc(/[N+]([O-])=C/c2ccccc2)c1: false
6) CSC(=S)N/N=C(\C)c1cccc(C)n1: false
7) S=C(Nc1ccc(Cl)c(Cl)c1)SCc1ccc2c(c1)OCO2: true
8) COC(=O)c1ccc(NCC2=CC(=O)C=CC2=O)cc1O: true
9) CC1(Cl)CC(O)C2(CC1Br)C1(C)OC1C1OC1(Br)C2(C)C (stereo unspecified): false
10) O=C(O)c1ccccc1-c1ccccc1C(=O)Nc1ccc2c(c1)Cc1ccccc1-2: false
11) CCN(CC)CCNc1ccc([N+](=O)[O-])c2nc3ccc(OC)cc3c(N)c12: true

----------
Assay Name: NCI Yeast Anticancer Drug Screen. Data for the mec2-1 strain (AID 157)
Assay Setup: S. cerevisiae mec2-1 strain, at 1.2 µM, stronger effect = higher value
Compounds without any hit were thinned out: in the full panel of roughly 79,000, 15% have a hit.
Experimental Readout: growth inhibition (%)

1) COc1cc(C2c3cc4c(cc3OC(Nc3ccccc3)C2C)OCO4)cc(OC)c1O (stereo unspecified): 0
2) COc1ccc2c(c1)C(=O)c1ccccc1C2: -1
3) CC1=NN(c2cccc(Cl)c2)C(=O)C1: -35
4) c1ccc2c(c1)C(=NCCCN1CCCCCC1)c1cccn1-2: -3
5) CCOC(=O)C(NC(=O)c1ccccc1)(N1CCN(c2cc3c(cc2F)c(=O)c(C(=O)O)cn3C2CC2)CC1)C(F)(F)F (stereo unspecified): -1
6) CCC(=O)OCCn1c2nc(=O)[nH]c(=O)c-2nc2cc(C)c(C)cc21: -2
7) CCN(CC)CCC(=O)c1ccc(Oc2ccc(F)cc2)cc1: 17
8) N#Cc1ccc(C2NN=CC23C(=O)c2ccccc2OC3c2ccccc2)cc1 (stereo unspecified): 2
9) CCc1ccc(NS(=O)(=O)c2ccccc2)c([N+](=O)[O-])c1: 1
10) Fc1ccc(NC(=S)SCc2ccc3c(c2)OCO3)cc1F: -10
11) O=C1c2ccccc2C(=O)c2cc(CBr)ccc21: 1

----------
Assay Name: NCI Yeast Anticancer Drug Screen. Data for the rad50EPP+ strain (AID 151);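 note: 0% = growth of vehicle-treated control cultures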
Assay Setup: S. cerevisiae rad50 mutant strain, at 3.7 µM
Compounds without any hit were thinned out: in the full panel of roughly 79,000, 15% have a hit. Activity calls are given as the source filed them. No stated cut-off is given here; in the data, active means growth inhibition above about 70%; inactive means the rest.
Classes used: active, inactive

1) CN1CCc2ccccc2C1Cc1ccccc1NC(=O)c1sc2ccccc2c1Cl (centres undefined): inactive
2) Cc1ccc(Cl)c2[nH]c(-c3ccccc3)cc(=O)c12: inactive
3) CC(=O)Oc1ccc2c(c1)Cc1cc(N=C3C=CC(=O)O3)ccc1-2: active
4) COc1ccc2sc3cccc(NCCN(C)C)c3c(=O)c2c1: inactive
5) O=C(N=Nc1ccccc1Cl)NNc1ccccc1Cl: inactive
6) O=C(N=Nc1cc(Cl)ccc1Cl)NNc1cc(Cl)ccc1Cl: inactive
7) O=S(=O)(CCCl)c1ccccc1Cl: inactive
8) COc1cc(C2C3=C(COC3=O)Oc3cc4c(cc32)OCO4)ccc1O (centres undefined): inactive
9) CN(C)c1ccc(C(C#N)=C(C#N)C#N)cc1: inactive
10) COc1ccc(C2c3cc4c(cc3OC(C)(O)C2C)OCO4)c(OC)c1 (centres undefined): inactive
11) CCN(CC)CC[n+]1ccc2c(C)c3[nH]c4ccc(O)cc4c3c(C)c2c1: inactive
12) CC(/C=C/c1ccc2c(c1)OCO2)[N+](=O)[O-] (centres undefined): active
13) COc1cc(/C=C2\CCc3ccccc3C2=O)cc(OC)c1OC: inactive
14) CCCCCCCCCCCC1=C(O)C(=O)C=C(O)C1=O: inactive
15) CC(=O)SCCC[Si](C)(C)CCCSC(C)=O: inactive
16) CC(C)(C)c1nc2c(o1)C(=O)c1ccccc1C2=O: inactive
17) N#CSc1ccc(S(N)(=O)=O)cc1: inactive
18) CCOc1ccc2c(c1)c(CC(=O)O)cn2C: inactive
19) COc1cc(CC2CC(c3ccc4c(c3)OCO4)OC2=O)cc(OC)c1OC (centres undefined): inactive
20) C=C(CN(C)C)C(=O)c1cc(C)ccc1C: inactive
21) Cc1c(C(Cc2ccccc2N(C)C(=O)/C=C\C(=O)O)c2c[nH]c3ccccc23)c2ccccc2n1C (centres undefined): inactive
22) COc1cc(C2SCC(=O)N2c2ccc(-c3ccc(-n4c(-c5ccccc5)nc5ccccc5c4=O)cc3)cc2)cc(OC)c1OC (centres undefined): inactive
23) COc1cc(C(=O)/C=C/c2ccccc2O)ccc1O: active
24) O=C1C=CC(=O)c2c(O)c(Nc3ccc(OC(F)(F)F)cc3)c(Cl)c(O)c21: inactive
